Source: paper PMC5707354

- TARGET_DESC: Myosin VI tail (MVITAIL 814-1253) (human)
- PROCEDURE_DETAILS: FRET or BRET; AF555-MVITAIL titrated against FITC-MVITAIL in the presence of 20 uM NDP52 and DNA; monomer to dimer; 25 C, 50 mM Tris-HCl pH 7.5, 150 mM NaCl, 1 mM DTT
RECORDED_ENDPOINT: pKd
The scale used: pKd is minus the common logarithm of the concentration in molar units.

Enquiry: Any idea what pKd was measured for Myosin VI tail (MVITAIL 814-1253) (domain or fragment) ?
Return: 5.60
